These measurements were taken from PubChem BioAssay (NCI).

Recorded TGI, one value per entry.
- Tested on: SF-539 CNS
- assay: NCI tumour cell line growth inhibition, 48 h

Past entries and their recorded results:
CCOc1ccc(N=Nc2ccc3oc(=O)c(C(=O)Nc4ccc(OC)cc4)cc3c2)cc1 ... 51 µM
Cc1ccc(S(=O)(=O)Oc2ccc(OS(=O)(=O)c3ccc(C)cc3)c3c2C(=O)c2ccccc2C3=O)cc1 ... > 100 µM
N#CC1CCN2N=C(c3ccccc3)SC12c1ccccc1 (centres undefined) ... > 100 µM
N#CCC(=O)N/N=C1\C(=O)N(c2ccc(Cl)cc2)C(=O)C(=O)C1c1nc2ccccc2o1 (centres undefined) ... > 100 µM
N#Cc1cccc(NC(=O)c2oc3ccccc3c2-c2cnn(-c3ccccc3)c2)c1 ... > 500 µM
CCCCNC(=O)Nc1c(C(N)=O)c2n(c1C(=O)OCC)CCCCC2 ... > 100 µM
c1ccc2c3c([nH]c2c1)C1c2[nH]c4ccccc4c2CCN1CC3 ... 31.3 µM
Cc1cc(NS(=O)(=O)c2ccc(NC(=O)c3cccc4c(Nc5ccc(S(=O)(=O)Nc6cc(C)on6)cc5)c5ccccc5nc34)cc2)no1 ... 62 µM

The reported value for COc1cc(C2CC(c3cc(C)ccc3C)=NN2c2ccc(S(=O)(=O)NC(=O)NCc3ccccc3)cc2)cc(OC)c1OC (centres undefined) in terms of TGI is 4.69 µM
